# studyTarget: CaMK2α (Homo sapiens, UniProt Q9UQM7)
# Construct: purchased Carna Biosciences
# Sequence (Q9UQM7 whole entry): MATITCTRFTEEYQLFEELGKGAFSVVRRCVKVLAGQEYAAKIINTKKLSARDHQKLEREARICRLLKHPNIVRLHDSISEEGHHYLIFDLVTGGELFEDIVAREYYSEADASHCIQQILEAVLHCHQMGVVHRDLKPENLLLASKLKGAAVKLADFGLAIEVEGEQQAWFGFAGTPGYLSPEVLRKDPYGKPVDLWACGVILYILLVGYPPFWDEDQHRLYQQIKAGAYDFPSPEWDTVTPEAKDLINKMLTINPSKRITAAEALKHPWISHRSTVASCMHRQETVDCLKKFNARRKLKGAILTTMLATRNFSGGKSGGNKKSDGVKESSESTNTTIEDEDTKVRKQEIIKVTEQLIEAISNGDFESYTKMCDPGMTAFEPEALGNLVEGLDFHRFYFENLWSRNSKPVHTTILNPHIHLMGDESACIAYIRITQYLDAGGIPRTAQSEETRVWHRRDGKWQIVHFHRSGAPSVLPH
# procedureText: Kinase panel profiling at 1 µmol/L (mobility shift assay, Carna)
# Type: biochemical
# conditionDescription: 1 µmol/L of BTK inhibitor
Below, each of the compounds is paired with its reported Percentage inhibition of kinase enzyme activity value.
recordedEndpoint: Percentage inhibition of kinase enzyme activity (%)

itemSmiles	recordedNumber
O=C(c1ccc(Oc2ccccc2)cc1Cl)c1c[nH]c2ncnc(N[C@@H]3CC[C@@H](CO)OC3)c12	2.91
C=CC(=O)N1CCC[C@@H](n2nc(-c3ccc(Oc4ccccc4)cc3)c3c(N)ncnc32)C1	-1.35
COc1ccc(F)cc1C(=O)NCc1ccc(-c2nn([C@@H](C)C(F)(F)F)c(N)c2C(N)=O)cc1	-0.99
CC#CC(=O)N1CCC[C@H]1c1nc(-c2ccc(C(=O)Nc3ccccn3)cc2)c2c(N)nccn12	-3.43

====

# studyTarget: TNIK (Homo sapiens, UniProt Q9UKE5)
# Construct: purchased Carna Biosciences
# Sequence (Q9UKE5 whole entry): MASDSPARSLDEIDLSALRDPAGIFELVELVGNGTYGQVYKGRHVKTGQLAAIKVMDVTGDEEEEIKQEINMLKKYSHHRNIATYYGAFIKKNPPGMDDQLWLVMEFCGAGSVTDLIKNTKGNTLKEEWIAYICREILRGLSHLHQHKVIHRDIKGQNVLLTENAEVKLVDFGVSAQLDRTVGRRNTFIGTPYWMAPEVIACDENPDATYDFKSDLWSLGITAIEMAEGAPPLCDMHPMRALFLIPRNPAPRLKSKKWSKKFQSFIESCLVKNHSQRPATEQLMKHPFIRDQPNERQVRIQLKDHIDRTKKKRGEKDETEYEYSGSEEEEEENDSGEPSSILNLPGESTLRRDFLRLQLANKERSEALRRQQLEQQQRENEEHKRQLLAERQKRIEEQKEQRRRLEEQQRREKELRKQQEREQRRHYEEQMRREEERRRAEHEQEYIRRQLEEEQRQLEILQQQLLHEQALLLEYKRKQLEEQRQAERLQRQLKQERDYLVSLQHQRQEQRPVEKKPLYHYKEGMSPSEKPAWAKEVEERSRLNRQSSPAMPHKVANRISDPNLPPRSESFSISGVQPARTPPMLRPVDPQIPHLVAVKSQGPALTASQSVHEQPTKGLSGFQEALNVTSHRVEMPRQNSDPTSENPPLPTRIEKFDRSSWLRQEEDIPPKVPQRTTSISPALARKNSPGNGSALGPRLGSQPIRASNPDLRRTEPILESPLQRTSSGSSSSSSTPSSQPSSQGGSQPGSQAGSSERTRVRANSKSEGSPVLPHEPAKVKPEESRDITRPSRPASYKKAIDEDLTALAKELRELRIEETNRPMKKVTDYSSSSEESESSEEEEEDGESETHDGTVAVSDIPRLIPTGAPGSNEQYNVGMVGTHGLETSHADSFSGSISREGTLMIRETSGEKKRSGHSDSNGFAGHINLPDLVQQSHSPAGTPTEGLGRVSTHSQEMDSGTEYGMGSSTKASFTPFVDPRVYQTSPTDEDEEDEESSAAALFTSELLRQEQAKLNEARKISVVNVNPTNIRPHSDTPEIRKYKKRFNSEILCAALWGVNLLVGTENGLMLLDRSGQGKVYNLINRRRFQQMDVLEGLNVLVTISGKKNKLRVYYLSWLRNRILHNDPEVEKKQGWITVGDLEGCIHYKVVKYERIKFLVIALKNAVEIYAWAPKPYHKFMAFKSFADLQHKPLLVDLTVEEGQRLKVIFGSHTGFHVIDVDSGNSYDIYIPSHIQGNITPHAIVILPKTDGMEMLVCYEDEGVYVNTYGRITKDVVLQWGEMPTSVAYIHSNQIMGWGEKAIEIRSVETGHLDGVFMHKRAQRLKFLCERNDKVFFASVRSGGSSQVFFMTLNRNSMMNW
# procedureText: Kinase panel profiling at 1 µmol/L (mobility shift assay, Carna)
# Format: biochemical
# conditionDescription: 1 µmol/L of BTK inhibitor
Below, each of the compounds is paired with its reported Percentage inhibition of kinase enzyme activity value.
recordedEndpoint: Percentage inhibition of kinase enzyme activity (%)

itemSmiles	recordedNumber
COc1ccc(F)cc1C(=O)NCc1ccc(-c2nn([C@@H](C)C(F)(F)F)c(N)c2C(N)=O)cc1	-3.38
O=C(c1ccc(Oc2ccccc2)cc1Cl)c1c[nH]c2ncnc(N[C@@H]3CC[C@@H](CO)OC3)c12	85.96
C=CC(=O)N1CCC[C@@H](n2nc(-c3ccc(Oc4ccccc4)cc3)c3c(N)ncnc32)C1	-1.62
CC#CC(=O)N1CCC[C@H]1c1nc(-c2ccc(C(=O)Nc3ccccn3)cc2)c2c(N)nccn12	-0.81

====

# studyTarget: PKCε (Homo sapiens, UniProt Q02156)
# Construct: purchased Carna Biosciences
# Sequence (Q02156 whole entry): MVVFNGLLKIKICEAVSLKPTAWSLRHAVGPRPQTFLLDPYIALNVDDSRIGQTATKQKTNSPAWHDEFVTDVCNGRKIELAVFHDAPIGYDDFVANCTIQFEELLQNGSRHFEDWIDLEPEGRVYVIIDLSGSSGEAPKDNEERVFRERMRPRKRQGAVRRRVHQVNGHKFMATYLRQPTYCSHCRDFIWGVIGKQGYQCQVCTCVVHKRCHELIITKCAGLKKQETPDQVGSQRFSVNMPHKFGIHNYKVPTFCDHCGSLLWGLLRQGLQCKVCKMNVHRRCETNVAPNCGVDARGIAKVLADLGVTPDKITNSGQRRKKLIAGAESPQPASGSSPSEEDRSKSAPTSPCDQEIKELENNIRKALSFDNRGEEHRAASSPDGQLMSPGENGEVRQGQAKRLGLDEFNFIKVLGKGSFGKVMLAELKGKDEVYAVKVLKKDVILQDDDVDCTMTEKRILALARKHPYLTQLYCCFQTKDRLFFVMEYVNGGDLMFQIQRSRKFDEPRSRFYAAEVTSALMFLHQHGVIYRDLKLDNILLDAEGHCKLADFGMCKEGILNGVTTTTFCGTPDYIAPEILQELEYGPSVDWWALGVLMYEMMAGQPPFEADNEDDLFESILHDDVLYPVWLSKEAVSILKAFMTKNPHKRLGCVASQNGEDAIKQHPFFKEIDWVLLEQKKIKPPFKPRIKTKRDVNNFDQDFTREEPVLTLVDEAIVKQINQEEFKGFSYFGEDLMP
# procedureText: Kinase panel profiling at 1 µmol/L (mobility shift assay, Carna)
# Type: biochemical
# conditionDescription: 1 µmol/L of BTK inhibitor
recordedEndpoint: Percentage inhibition of kinase enzyme activity (%)

molecule	studyTarget	recordedNumber
O=C(c1ccc(Oc2ccccc2)cc1Cl)c1c[nH]c2ncnc(N[C@@H]3CC[C@@H](CO)OC3)c12 [nemtabrutinib]	PKCε (Homo sapiens, UniProt Q02156)	12.58
C=CC(=O)N1CCC[C@@H](n2nc(-c3ccc(Oc4ccccc4)cc3)c3c(N)ncnc32)C1 [ibrutinib]	PKCε (Homo sapiens, UniProt Q02156)	7.63
CC#CC(=O)N1CCC[C@H]1c1nc(-c2ccc(C(=O)Nc3ccccn3)cc2)c2c(N)nccn12 [acalabrutinib]	PKCε (Homo sapiens, UniProt Q02156)	-8.62
COc1ccc(F)cc1C(=O)NCc1ccc(-c2nn([C@@H](C)C(F)(F)F)c(N)c2C(N)=O)cc1 [pirtobrutinib]	PKCε (Homo sapiens, UniProt Q02156)	18.12

====

# Tested on: AsPC-1
# procedureText: Cell viability assay (ATPlite)
# Format: cell-based
# conditionDescription: Homo sapiens, ASPC1; AsPC-1 cell line, 72 hours incubation

itemSmiles	IC50
O=C(c1ccc(Oc2ccccc2)cc1Cl)c1c[nH]c2ncnc(N[C@@H]3CC[C@@H](CO)OC3)c12	3.83 µM

====

Below, each of the compounds is paired with its reported Percentage inhibition of kinase enzyme activity value.
# studyTarget: PKACα (Homo sapiens, UniProt P17612)
# Construct: purchased Carna Biosciences
# procedureText: Kinase panel profiling at 1 µmol/L (mobility shift assay, Carna)
# Format: biochemical
# conditionDescription: 1 µmol/L of BTK inhibitor
recordedEndpoint: Percentage inhibition of kinase enzyme activity

compound	result
COc1ccc(F)cc1C(=O)NCc1ccc(-c2nn([C@@H](C)C(F)(F)F)c(N)c2C(N)=O)cc1 [pirtobrutinib]	-26.62%
C=CC(=O)N1CCC[C@@H](n2nc(-c3ccc(Oc4ccccc4)cc3)c3c(N)ncnc32)C1 [ibrutinib]	-10.78%
CC#CC(=O)N1CCC[C@H]1c1nc(-c2ccc(C(=O)Nc3ccccn3)cc2)c2c(N)nccn12 [acalabrutinib]	-5.14%
O=C(c1ccc(Oc2ccccc2)cc1Cl)c1c[nH]c2ncnc(N[C@@H]3CC[C@@H](CO)OC3)c12 [nemtabrutinib]	0.95%

====

# studyTarget: EPHB4 (Homo sapiens)
# Construct: purchased Carna Biosciences
# Sequence (P54760 16-987): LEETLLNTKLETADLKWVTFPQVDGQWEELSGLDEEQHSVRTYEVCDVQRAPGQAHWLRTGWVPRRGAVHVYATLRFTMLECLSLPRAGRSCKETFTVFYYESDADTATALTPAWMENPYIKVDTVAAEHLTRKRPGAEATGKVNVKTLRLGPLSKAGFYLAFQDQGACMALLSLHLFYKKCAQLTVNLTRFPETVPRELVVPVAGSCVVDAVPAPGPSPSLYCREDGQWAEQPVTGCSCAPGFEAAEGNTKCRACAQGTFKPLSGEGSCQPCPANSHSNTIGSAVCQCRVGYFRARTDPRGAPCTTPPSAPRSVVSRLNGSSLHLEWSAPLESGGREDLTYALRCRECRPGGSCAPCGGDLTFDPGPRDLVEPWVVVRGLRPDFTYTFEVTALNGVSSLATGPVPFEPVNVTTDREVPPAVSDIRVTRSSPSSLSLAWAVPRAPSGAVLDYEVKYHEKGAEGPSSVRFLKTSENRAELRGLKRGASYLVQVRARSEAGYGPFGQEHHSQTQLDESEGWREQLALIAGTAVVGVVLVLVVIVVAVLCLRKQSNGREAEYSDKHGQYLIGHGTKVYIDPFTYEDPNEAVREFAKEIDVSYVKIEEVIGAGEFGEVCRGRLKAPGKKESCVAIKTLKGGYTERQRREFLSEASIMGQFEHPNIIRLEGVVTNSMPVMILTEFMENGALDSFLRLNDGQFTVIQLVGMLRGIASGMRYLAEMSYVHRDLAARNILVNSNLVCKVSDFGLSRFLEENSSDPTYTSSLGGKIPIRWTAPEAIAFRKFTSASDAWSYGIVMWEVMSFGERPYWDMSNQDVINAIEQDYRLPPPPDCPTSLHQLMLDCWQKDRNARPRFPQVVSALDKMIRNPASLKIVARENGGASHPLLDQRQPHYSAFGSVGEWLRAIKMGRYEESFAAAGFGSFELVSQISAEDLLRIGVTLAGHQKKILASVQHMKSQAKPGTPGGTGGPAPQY
# procedureText: Kinase panel profiling at 1 µmol/L (mobility shift assay, Carna)
# Assay type: biochemical
# conditionDescription: 1 µmol/L of BTK inhibitor
recordedEndpoint: Percentage inhibition of kinase enzyme activity (%)

compound	unitsLabel	recordedNumber
COc1ccc(F)cc1C(=O)NCc1ccc(-c2nn([C@@H](C)C(F)(F)F)c(N)c2C(N)=O)cc1 [pirtobrutinib]	%	4.51
CC#CC(=O)N1CCC[C@H]1c1nc(-c2ccc(C(=O)Nc3ccccn3)cc2)c2c(N)nccn12 [acalabrutinib]	%	-1.45
C=CC(=O)N1CCC([C@@H]2CCNc3c(C(N)=O)c(-c4ccc(Oc5ccccc5)cc4)nn32)CC1 [zanubrutinib]	%	12.92
C=CC(=O)N1CCC[C@@H](n2nc(-c3ccc(Oc4ccccc4)cc3)c3c(N)ncnc32)C1 [ibrutinib]	%	26.52
O=C(c1ccc(Oc2ccccc2)cc1Cl)c1c[nH]c2ncnc(N[C@@H]3CC[C@@H](CO)OC3)c12 [nemtabrutinib]	%	37.75

====

Below, each of the compounds is paired with its reported Percentage inhibition of kinase enzyme activity value.
# studyTarget: MARK2 (Homo sapiens)
# Construct: purchased Carna Biosciences
# procedureText: Kinase panel profiling at 1 µmol/L (mobility shift assay, Carna)
# Assay type: biochemical
# conditionDescription: 1 µmol/L of BTK inhibitor
recordedEndpoint: Percentage inhibition of kinase enzyme activity

itemSmiles	studyTarget	result
CC#CC(=O)N1CCC[C@H]1c1nc(-c2ccc(C(=O)Nc3ccccn3)cc2)c2c(N)nccn12	MARK2 (Homo sapiens)	-9.24%
O=C(c1ccc(Oc2ccccc2)cc1Cl)c1c[nH]c2ncnc(N[C@@H]3CC[C@@H](CO)OC3)c12	MARK2 (Homo sapiens)	-4.16%
COc1ccc(F)cc1C(=O)NCc1ccc(-c2nn([C@@H](C)C(F)(F)F)c(N)c2C(N)=O)cc1	MARK2 (Homo sapiens)	2.21%
C=CC(=O)N1CCC[C@@H](n2nc(-c3ccc(Oc4ccccc4)cc3)c3c(N)ncnc32)C1	MARK2 (Homo sapiens)	2.67%

====

# studyTarget: PASK (Homo sapiens, UniProt Q96RG2)
# Construct: purchased Carna Biosciences
# procedureText: Kinase panel profiling at 1 µmol/L (mobility shift assay, Carna)
# Assay type: biochemical
# conditionDescription: 1 µmol/L of BTK inhibitor
recordedEndpoint: Percentage inhibition of kinase enzyme activity (%)

itemSmiles	studyTarget	unitsLabel	recordedNumber
CC#CC(=O)N1CCC[C@H]1c1nc(-c2ccc(C(=O)Nc3ccccn3)cc2)c2c(N)nccn12	PASK (Homo sapiens, UniProt Q96RG2)	%	-5.37
COc1ccc(F)cc1C(=O)NCc1ccc(-c2nn([C@@H](C)C(F)(F)F)c(N)c2C(N)=O)cc1	PASK (Homo sapiens, UniProt Q96RG2)	%	3.07
C=CC(=O)N1CCC[C@@H](n2nc(-c3ccc(Oc4ccccc4)cc3)c3c(N)ncnc32)C1	PASK (Homo sapiens, UniProt Q96RG2)	%	-0.0437
O=C(c1ccc(Oc2ccccc2)cc1Cl)c1c[nH]c2ncnc(N[C@@H]3CC[C@@H](CO)OC3)c12	PASK (Homo sapiens, UniProt Q96RG2)	%	21.76

====

# studyTarget: FLT4 (Homo sapiens)
# Construct: purchased Carna Biosciences
# Sequence (P35916 25-1363): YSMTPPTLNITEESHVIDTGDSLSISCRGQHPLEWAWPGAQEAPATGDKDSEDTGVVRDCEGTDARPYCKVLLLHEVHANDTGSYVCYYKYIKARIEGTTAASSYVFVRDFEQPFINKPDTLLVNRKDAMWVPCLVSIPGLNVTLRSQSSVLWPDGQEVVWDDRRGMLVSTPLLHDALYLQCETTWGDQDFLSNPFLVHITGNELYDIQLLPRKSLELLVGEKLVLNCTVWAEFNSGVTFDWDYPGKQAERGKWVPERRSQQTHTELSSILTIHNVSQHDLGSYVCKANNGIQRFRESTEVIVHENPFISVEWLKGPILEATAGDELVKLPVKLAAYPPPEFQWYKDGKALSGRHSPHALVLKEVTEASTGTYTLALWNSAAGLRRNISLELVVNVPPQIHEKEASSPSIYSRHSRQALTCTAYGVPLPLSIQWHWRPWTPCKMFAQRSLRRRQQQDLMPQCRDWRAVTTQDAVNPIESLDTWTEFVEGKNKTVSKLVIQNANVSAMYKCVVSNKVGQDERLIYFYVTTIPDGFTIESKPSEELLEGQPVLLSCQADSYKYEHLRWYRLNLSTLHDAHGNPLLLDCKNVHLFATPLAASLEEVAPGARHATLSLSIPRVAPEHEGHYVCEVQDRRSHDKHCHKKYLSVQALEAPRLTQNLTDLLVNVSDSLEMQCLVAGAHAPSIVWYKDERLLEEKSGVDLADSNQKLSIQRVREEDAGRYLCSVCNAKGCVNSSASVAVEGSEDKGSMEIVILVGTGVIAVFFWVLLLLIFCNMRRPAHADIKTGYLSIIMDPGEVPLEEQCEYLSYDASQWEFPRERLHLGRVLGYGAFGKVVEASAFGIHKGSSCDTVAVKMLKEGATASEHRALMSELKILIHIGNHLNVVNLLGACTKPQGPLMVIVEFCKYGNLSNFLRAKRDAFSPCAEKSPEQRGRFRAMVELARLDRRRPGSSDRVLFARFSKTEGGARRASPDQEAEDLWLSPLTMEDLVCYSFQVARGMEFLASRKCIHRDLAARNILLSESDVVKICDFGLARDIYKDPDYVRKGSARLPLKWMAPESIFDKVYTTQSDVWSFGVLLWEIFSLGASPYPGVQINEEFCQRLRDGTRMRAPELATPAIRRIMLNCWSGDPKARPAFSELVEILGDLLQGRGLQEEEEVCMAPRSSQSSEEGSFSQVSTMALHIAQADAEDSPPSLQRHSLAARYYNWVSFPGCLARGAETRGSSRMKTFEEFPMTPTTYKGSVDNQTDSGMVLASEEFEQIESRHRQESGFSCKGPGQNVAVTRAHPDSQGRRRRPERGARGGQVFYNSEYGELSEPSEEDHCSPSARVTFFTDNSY
# procedureText: Kinase panel profiling at 1 µmol/L (mobility shift assay, Carna)
# Format: biochemical
# conditionDescription: 1 µmol/L of BTK inhibitor
recordedEndpoint: Percentage inhibition of kinase enzyme activity (%)

molecule	studyTarget	unitsLabel	recordedNumber
COc1ccc(F)cc1C(=O)NCc1ccc(-c2nn([C@@H](C)C(F)(F)F)c(N)c2C(N)=O)cc1 [pirtobrutinib]	FLT4 (Homo sapiens)	%	4.92
C=CC(=O)N1CCC[C@@H](n2nc(-c3ccc(Oc4ccccc4)cc3)c3c(N)ncnc32)C1 [ibrutinib]	FLT4 (Homo sapiens)	%	90.82
C=CC(=O)N1CCC([C@@H]2CCNc3c(C(N)=O)c(-c4ccc(Oc5ccccc5)cc4)nn32)CC1 [zanubrutinib]	FLT4 (Homo sapiens)	%	-6.85
O=C(c1ccc(Oc2ccccc2)cc1Cl)c1c[nH]c2ncnc(N[C@@H]3CC[C@@H](CO)OC3)c12 [nemtabrutinib]	FLT4 (Homo sapiens)	%	90.70
CC#CC(=O)N1CCC[C@H]1c1nc(-c2ccc(C(=O)Nc3ccccn3)cc2)c2c(N)nccn12 [acalabrutinib]	FLT4 (Homo sapiens)	%	1.41

====

# studyTarget: MET (Homo sapiens)
# Construct: purchased Carna Biosciences
# procedureText: Kinase panel profiling at 1 µmol/L (mobility shift assay, Carna)
# Assay type: biochemical
# conditionDescription: 1 µmol/L of BTK inhibitor
Below, each of the compounds is paired with its reported Percentage inhibition of kinase enzyme activity value.
recordedEndpoint: Percentage inhibition of kinase enzyme activity (%)

itemSmiles	recordedNumber
C=CC(=O)N1CCC[C@@H](n2nc(-c3ccc(Oc4ccccc4)cc3)c3c(N)ncnc32)C1	11.55
C=CC(=O)N1CCC([C@@H]2CCNc3c(C(N)=O)c(-c4ccc(Oc5ccccc5)cc4)nn32)CC1	1.41
O=C(c1ccc(Oc2ccccc2)cc1Cl)c1c[nH]c2ncnc(N[C@@H]3CC[C@@H](CO)OC3)c12	42.98
CC#CC(=O)N1CCC[C@H]1c1nc(-c2ccc(C(=O)Nc3ccccn3)cc2)c2c(N)nccn12	3.91
COc1ccc(F)cc1C(=O)NCc1ccc(-c2nn([C@@H](C)C(F)(F)F)c(N)c2C(N)=O)cc1	1.44

Attribution: paper PMC12586182
